Record: compiled IC50 on Vascular endothelial growth factor receptor 2 (Homo sapiens, UniProt P35968) from multiple reports.

COc1cc(OC)cc(-c2nccn3nc(Nc4cc(C)cc(C)c4)nc23)c1; 3 to 50 µM
O=C(Nc1cccc(Oc2cc(-c3nnn[nH]3)ncn2)c1)Nc1ccc(Cl)c(C(F)(F)F)c1; ≤ 10 µM

Field IC50 (entry CN1CCOc2cc(S(=O)(=O)Nc3ccc(F)c(C(=O)c4c[nH]c5ncc(Cl)cc45)c3F)ccc21 ) reads ≤ 10 µM

Field IC50 (entry Cc1cc(OCCC2CCN(C)CC2)c2oc3cc(Oc4ccccc4)ccc3c(=O)c2c1 ) reads 1 to 10 µM

* * *

Record: compiled pIC50 on Vascular endothelial growth factor receptor 2 (Homo sapiens, UniProt P35968) from multiple reports.
Lab note — pIC50 values are minus log10 of concentrations in M.

Cc1cc(Oc2ccnc(NC(=O)C3CC3)c2)ccc1NC(=O)Nc1ccc(Cl)c(C(F)(F)F)c1; 7.98

Field pIC50 (entry COCCOc1cc2nccc(Oc3ccc(NC(=O)Nc4cccc(O)c4)cc3)c2cc1C#N ) reads 8.06

Field pIC50 (entry COc1cc(OC)cc(N(CCCO)c2ccc3ncc(-c4ccnc(C(=O)NCCCN)c4)nc3c2)c1 ) reads 6.24

Field pIC50 (entry CN(C)C(=S)N1CCN(c2ccc(-c3cc(-c4cnn(C)c4)cn4ncc(C#N)c34)cn2)CC1 ) reads 8.04

* * *

Record: compiled IC50 on Vascular endothelial growth factor receptor 2 (Homo sapiens, UniProt P35968) from multiple reports.

Field IC50 (entry COC(=O)c1cnc(/C(C(N)=O)=C2/Nc3ccccc3S2)nc1C(F)(F)F ) reads 90 nM

Field IC50 (entry COc1cc2nccc(Oc3ccc(NC(=O)c4c(C)n(C)c(C)c(C5CC5)c4=O)cc3F)c2nc1OC ) reads > 300 nM

Field IC50 (entry COc1cc(Nc2nc3c(-c4cn[nH]c4)nccn3n2)cc(OC)c1 ) reads 300 to 3000 nM

Field IC50 (entry O=C(Nc1ccc(Nc2ncnc3cc(OCCCN4CCCC4)c4c(c23)OCCO4)cc1Cl)NC1CC1 ) reads < 50 nM

Field IC50 (entry CC(C)c1ccc(Cc2c[nH]c3ncccc23)cn1 ) reads ≤ 10000 nM

Field IC50 (entry c1coc(-c2nc(-c3ccnc4[nH]ccc34)no2)c1 ) reads ≤ 10000 nM

Field IC50 (entry COc1cc(-c2cc3nccc(-c4ccc(CN)cc4)c3o2)cc(OC)c1OC ) reads 300 to 3000 nM

* * *

Record: compiled IC50 on Vascular endothelial growth factor receptor 2 (Homo sapiens) from multiple reports.

Examples from the recorded data:
CCOc1ccn(-c2ccc(F)cc2)c(=O)c1C(=O)Nc1ccc(Oc2ccnc3cc(OCCCN4CCS(=O)(=O)CC4)c4c(c23)OCCO4)c(F)c1; ≤ 0.05 µM
O=C(c1c(F)ccc(NS(=O)(=O)c2c(F)cccc2F)c1F)c1c[nH]c2nccc(Cl)c12; ≤ 10 µM
COc1ccc(CN2C[C@@H]3CN(c4ccc(-c5cc(OCC(C)(C)O)cn6ncc(C#N)c56)cn4)C[C@@H]3C2)cn1; > 0.1 µM
CCN(CC)CCNC(=O)c1c(C)[nH]c2c1CCC/C2=C1/C(=O)Nc2ccc(S(=O)(=O)NC)cc21; 0.019 µM
CCN(CC)CCOc1cc2nccc(Oc3ccc(NC(=S)NC4CC4)c(Cl)c3)c2cc1C(N)=O; 0.2 to 1 µM

Reading of IC50 for Cc1cc(C(=O)c2c[nH]c3ncc(-c4cccc(N)c4)cc23)no1 with Vascular endothelial growth factor receptor 2 (Homo sapiens): ≤ 10 µM

Reading of IC50 for COc1ccnc2[nH]cc(C(=O)c3c(F)ccc(NS(=O)(=O)C(C)C)c3F)c12 with Vascular endothelial growth factor receptor 2 (Homo sapiens): ≤ 10 µM

Reading of IC50 for Cc1noc(C)c1-c1cc2nccc(-c3c(C)noc3C)c2o1 with Vascular endothelial growth factor receptor 2 (Homo sapiens): 3 to 50 µM

Reading of IC50 for COc1cc(OC)cc(N(CCCNCC(F)(F)F)c2ccc3ncc(-c4ccc(N(C)C(=O)OC(C)(C)C)nc4)nc3c2)c1 with Vascular endothelial growth factor receptor 2 (Homo sapiens): > 1 µM

Reading of IC50 for O=C(c1c(F)ccc(NS(=O)(=O)c2ccccn2)c1F)c1c[nH]c2ncc(Cl)cc12 with Vascular endothelial growth factor receptor 2 (Homo sapiens): ≤ 10 µM

Reading of IC50 for Cn1ccc(-c2cc(-c3ccc(N4C[C@@H]5CN(S(=O)(=O)c6c(F)cccc6Cl)C[C@@H]5C4)nc3)c3c(C#N)cnn3c2)n1 with Vascular endothelial growth factor receptor 2 (Homo sapiens): 0.01 to 0.05 µM

Reading of IC50 for CCCS(=O)(=O)Nc1cccc(C(=O)c2c[nH]c3ncc(C(=O)OCC)cc23)c1F with Vascular endothelial growth factor receptor 2 (Homo sapiens): ≤ 10 µM
